Where these numbers come from: ChEMBL document CHEMBL4417631

TESTED_SYSTEM: Interleukin-23 receptor (Homo sapiens, UniProt Q5VWK5)
Sequence (Q5VWK5 whole entry): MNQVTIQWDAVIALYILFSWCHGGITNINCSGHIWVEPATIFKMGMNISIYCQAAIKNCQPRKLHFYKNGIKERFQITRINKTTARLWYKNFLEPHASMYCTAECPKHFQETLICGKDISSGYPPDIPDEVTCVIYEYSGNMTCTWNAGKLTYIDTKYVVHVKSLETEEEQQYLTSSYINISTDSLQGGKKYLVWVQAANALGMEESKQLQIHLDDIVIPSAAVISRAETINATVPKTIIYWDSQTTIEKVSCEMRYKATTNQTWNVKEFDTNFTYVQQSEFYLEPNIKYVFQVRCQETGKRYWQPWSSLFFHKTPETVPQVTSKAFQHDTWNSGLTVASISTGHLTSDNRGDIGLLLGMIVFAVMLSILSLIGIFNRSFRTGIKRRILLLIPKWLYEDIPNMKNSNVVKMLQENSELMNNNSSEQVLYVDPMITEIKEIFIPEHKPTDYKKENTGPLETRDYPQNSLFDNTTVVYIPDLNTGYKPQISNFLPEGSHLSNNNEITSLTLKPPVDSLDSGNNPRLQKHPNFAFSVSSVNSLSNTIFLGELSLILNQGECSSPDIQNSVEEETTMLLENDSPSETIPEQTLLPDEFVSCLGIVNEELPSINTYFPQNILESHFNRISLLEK
TEST_DETAILS: Inhibition of interleukin-23 binding to human interleukin-23 receptor incubated for 2 hrs by competitive binding ELISA
Some compounds, each annotated with its measured IC50.

INPUT: I am curious: what IC50 value has been reported for `COc1ccc(C[C@H](NC(=O)[C@@H](NC(=O)[C@H](CCC(N)=O)NC(=O)[C@H](Cc2c[nH]c3ccccc23)NC(=O)[C@@H](NC(=O)[C@H](CCC(N)=O)NC(=O)[C@@H](NC(=O)[C@@H]2CCC(=O)N2)C(C)(C)S)[C@@H](C)O)C(C)(C)S)C(=O)N[C@@H](Cc2ccc3ccccc3c2)C(=O)N[C@@](C)(CCCCN)C(=O)N[C@@H](CCCCNC(C)=O)C(=O)N[C@@H](CC(N)=O)C(=O)NCC(N)=O)cc1` ?
OUTPUT: 25 to 100 nM

INPUT: I am curious: what IC50 value has been reported for `CC(=O)N[C@@H](CS)C(=O)N[C@@H](CCC(N)=O)C(=O)N[C@H](C(=O)N[C@@H](Cc1c[nH]c2ccccc12)C(=O)N[C@@H](CCC(N)=O)C(=O)N[C@@H](CS)C(=O)N[C@@H](Cc1ccc(O)cc1)C(=O)N[C@@H](Cc1c[nH]c2ccccc12)C(=O)N1CCC[C@@H]1C(=O)N[C@@H](CCC(=O)O)C(=O)N[C@@H](CC(N)=O)C(=O)NCC(N)=O)[C@@H](C)O` ?
OUTPUT: > 30000 nM

INPUT: I am curious: what IC50 value has been reported for `CC(=O)NCCCC[C@H](NC(=O)[C@](C)(CCCCN)NC(=O)[C@H](Cc1ccc2ccccc2c1)NC(=O)[C@H](Cc1cc(F)cc(F)c1)NC(=O)[C@@H](NC(=O)[C@H](CCC(N)=O)NC(=O)[C@H](Cc1c[nH]c2ccccc12)NC(=O)[C@@H](NC(=O)[C@H](CCC(N)=O)NC(=O)[C@@H](NC(C)=O)C(C)(C)S)[C@@H](C)O)C(C)(C)S)C(=O)N[C@@H](CC(N)=O)C(=O)NCC(N)=O` ?
OUTPUT: 100 to 1000 nM

INPUT: I am curious: what IC50 value has been reported for `COc1ccc(C[C@H](NC(=O)[C@@H](NC(=O)[C@H](CCC(N)=O)NC(=O)[C@H](Cc2c[nH]c3ccccc23)NC(=O)[C@@H](NC(=O)[C@H](CCC(N)=O)NC(=O)[C@@H](NC(=O)CCC(=O)O)C(C)(C)S)[C@@H](C)O)C(C)(C)S)C(=O)N[C@@H](Cc2ccc3ccccc3c2)C(=O)N[C@@](C)(CCCCN)C(=O)N[C@@H](CCCCNC(C)=O)C(=O)N[C@@H](CC(N)=O)C(=O)NCC(N)=O)cc1` ?
OUTPUT: 25 to 100 nM

INPUT: I am curious: what IC50 value has been reported for `CC(=O)N[C@@H](CS)C(=O)N[C@@H](CCC(N)=O)C(=O)N[C@H](C(=O)N[C@@H](Cc1c[nH]c2ccccc12)C(=O)N[C@@H](CCC(N)=O)C(=O)N[C@@H](CS)C(=O)N[C@@H](Cc1ccc(O)cc1)C(=O)N[C@@](C)(Cc1c[nH]c2ccccc12)C(=O)N[C@@H](CCC(C)C)C(=O)N[C@@H](CCC(=O)O)C(=O)N[C@@H](CCC(N)=O)C(=O)NCC(N)=O)[C@@H](C)O` ?
OUTPUT: > 30000 nM
